The entries below are paired with their reported Ki.
# Assay System: STAT6 protein (Homo sapiens, UniProt P42226)
# Sequence (P42226 1-847): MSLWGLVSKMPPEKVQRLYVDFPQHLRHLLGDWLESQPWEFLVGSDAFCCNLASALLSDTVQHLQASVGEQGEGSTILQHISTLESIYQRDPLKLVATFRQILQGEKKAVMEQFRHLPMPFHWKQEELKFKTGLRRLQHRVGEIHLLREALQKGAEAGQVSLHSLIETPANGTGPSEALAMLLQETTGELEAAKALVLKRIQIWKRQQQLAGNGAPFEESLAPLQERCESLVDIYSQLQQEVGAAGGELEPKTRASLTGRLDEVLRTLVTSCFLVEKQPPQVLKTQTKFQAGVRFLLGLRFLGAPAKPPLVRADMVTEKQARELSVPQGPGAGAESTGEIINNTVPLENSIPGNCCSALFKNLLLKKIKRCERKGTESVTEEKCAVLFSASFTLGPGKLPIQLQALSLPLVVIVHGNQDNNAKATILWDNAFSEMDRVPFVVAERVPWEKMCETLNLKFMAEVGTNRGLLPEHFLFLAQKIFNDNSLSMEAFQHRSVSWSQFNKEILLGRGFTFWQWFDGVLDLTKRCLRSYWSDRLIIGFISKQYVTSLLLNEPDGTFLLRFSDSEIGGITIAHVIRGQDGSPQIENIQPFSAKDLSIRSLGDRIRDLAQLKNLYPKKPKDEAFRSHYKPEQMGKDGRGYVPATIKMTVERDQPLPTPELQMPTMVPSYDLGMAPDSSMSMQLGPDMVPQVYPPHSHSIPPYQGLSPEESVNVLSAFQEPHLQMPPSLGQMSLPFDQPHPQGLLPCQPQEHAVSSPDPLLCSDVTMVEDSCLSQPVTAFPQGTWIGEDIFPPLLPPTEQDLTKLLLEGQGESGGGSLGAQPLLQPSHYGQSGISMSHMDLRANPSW
# Assay Overview: Fluorescence polarization (FP) binding assay, STAT6
# Experimental Parameters: FP competition, 5 nM fluorescein-labeled tracer, 200 nM protein, PBS pH7.4; read-out: Binding STAT6
Measured Parameter: Ki

Compound | Assay System | Measured Parameter | Measurement
CC(C)(C)[C@H](NC(=O)c1cc2cc(C(F)(F)P(=O)(O)O)ccc2s1)C(=O)N1CCC[C@H]1C(=O)N1CCOC(c2ccc(F)c(Cl)c2)C1 (stereo partly shown) [Compound 113] | STAT6 protein (Homo sapiens, UniProt P42226) | Ki | 100 to 1000 nM
CC(C)(C)[C@H](NC(=O)c1cc2cc(C(F)(F)P(=O)(O)O)ccc2s1)C(=O)N1Cc2ccccc2C[C@H]1C(=O)N1CCCCC(c2ccccc2)C1 (stereo partly shown) [Compound 244] | STAT6 protein (Homo sapiens, UniProt P42226) | Ki | 1000 to 10000 nM
CC(C)(C)[C@H](NC(=O)c1cc2cc(C(F)(F)P(=O)(O)O)ccc2s1)C(=O)N1C[C@@H](Oc2ccc3ccccc3c2)C[C@H]1C(=O)Nc1ncc(-c2ccccc2)s1 [Compound 209] | STAT6 protein (Homo sapiens, UniProt P42226) | Ki | 1000 to 10000 nM
CC(C)(C)[C@H](NC(=O)c1cc2cc(C(F)(F)P(=O)(O)O)ccc2s1)C(=O)N1CCC[C@H]1C(=O)N1CCOC(C2CCCCC2)C1 (stereo partly shown) [Compound 134] | STAT6 protein (Homo sapiens, UniProt P42226) | Ki | 1000 to 10000 nM
CC(C)(C)[C@H](NC(=O)c1cc2cc(C(F)(F)P(=O)(O)O)ccc2s1)C(=O)N1CCC[C@H]1C(=O)NC1(c2ccccc2)CC1 [Compound 71] | STAT6 protein (Homo sapiens, UniProt P42226) | Ki | 1000 to 10000 nM
COC(=O)CCN(C(=O)[C@@H]1CCCN1C(=O)[C@@H](NC(=O)c1cc2cc(C(F)(F)P(=O)(O)O)ccc2s1)C(C)(C)C)c1ccccc1 [Compound 38] | STAT6 protein (Homo sapiens, UniProt P42226) | Ki | 1000 to 10000 nM
CC(C)(C)[C@H](NC(=O)c1cc2cc(C(F)(F)P(=O)(O)O)ccc2s1)C(=O)N1Cc2ccccc2C[C@H]1C(=O)N1CCCC(c2cccc(F)c2)C1 (stereo partly shown) [Compound 245] | STAT6 protein (Homo sapiens, UniProt P42226) | Ki | 100 to 1000 nM
CC(=O)N1CC[C@H]2CC[C@@H](C(=O)Nc3ccccc3)N2C(=O)[C@@H](NC(=O)c2cc3cc(C(F)(F)P(=O)(O)O)ccc3[nH]2)C1 [Compound 361] | STAT6 protein (Homo sapiens, UniProt P42226) | Ki | > 10000 nM
CC(=O)N1CCN(C(=O)[C@@H](NC(=O)c2cc3cc(C(F)(F)P(=O)(O)O)ccc3s2)C(C)(C)C)[C@H](C(=O)N2CCC[C@H](c3ccccc3)C2)C1 [Compound 175] | STAT6 protein (Homo sapiens, UniProt P42226) | Ki | 100 to 1000 nM
O=C(N[C@@H](Cc1ccc(F)c(F)c1)C(=O)N1CCC[C@H]1C(=O)N1CCO[C@H](c2ccccc2)C1)c1cc2cc(C(F)(F)P(=O)(O)O)ccc2s1 [Compound 278] | STAT6 protein (Homo sapiens, UniProt P42226) | Ki | 100 to 1000 nM
